- measurement-notes: Cmax in golden Syrian hamster at 40 mg/kg, po by LC-MS/MS analysis
- Type: ADME, organism-based, Mesocricetus auratus
- Set-up: dose 40 mg/kg, route oral
- cond: in vivo
property-measured: Cmax (ng/mL)

Sample answers from the record:
compound-structure-string: O=[N+]([O-])c1cn2c(n1)OC[C@H](OCc1ccc(-c3ccc(OC(F)(F)F)cc3)cn1)C2
Cmax, ng/mL: 5700

compound-structure-string: O=[N+]([O-])c1cn2c(n1)OC[C@H](OCc1ccc(-c3ccc(OC(F)(F)F)cc3F)nc1)C2
Cmax, ng/mL: 4700

compound-structure-string: O=[N+]([O-])c1cn2c(n1)OC[C@H](Oc1ccc(OC(F)(F)F)cc1)C2
Cmax, ng/mL: 2100

[A] O=[N+]([O-])c1cn2c(n1)OC[C@H](OCc1ccc(-c3ccc(OC(F)(F)F)cc3F)cn1)C2
[B] O=[N+]([O-])c1cn2c(n1)OC[C@H](OCc1ccc(-c3ccc(F)cc3F)cn1)C2
Incoming: Problem: Given the entries A and B , determine which has the lower reported Cmax. State the label of the item chosen.
Outgoing: B
(B: 1900 ng/mL, A: 4200 ng/mL)

* * *

- Test system: Liver
- measurement-notes: Metabolic stability in human liver microsomes assessed as parent compound remaining at 1 uM after 1 hr
- Type: ADME, microsome
property-measured: Stability (%)

Sample answers from the record:
compound: O=[N+]([O-])c1cn2c(n1)OC[C@H](Oc1ccc(C(F)(F)F)cn1)C2
result-unit: %
meas-value: 90
//
compound: O=[N+]([O-])c1cn2c(n1)OC[C@H](OCc1ccc(-c3ccc(OC(F)(F)F)cc3Cl)cn1)C2
result-unit: %
meas-value: 16
//
compound: CC1(C)Oc2nc([N+](=O)[O-])cn2CC1OCc1ccc(OC(F)(F)F)cc1 (configuration not stated)
result-unit: %
meas-value: 92
//
compound: O=[N+]([O-])c1cn2c(n1)OC[C@H](OCc1ccc(-c3ccc(OC(F)F)cc3)cn1)C2
result-unit: %
meas-value: 49
//
compound: O=[N+]([O-])c1cn2c(n1)OC[C@H](OCc1ccc(-c3ccc(OC(F)(F)F)cc3F)nc1)C2
result-unit: %
meas-value: 37

[1] O=[N+]([O-])c1cn2c(n1)OC[C@H](OCc1ncccc1-c1ccc(OC(F)(F)F)cc1)C2
[2] O=[N+]([O-])c1cn2c(n1)OC[C@H](OCc1ccc(-c3ccc(F)cc3)cn1)C2
[3] O=[N+]([O-])c1cn2c(n1)OC[C@H](OCc1ccc(-c3ccc(OC(F)(F)F)cc3F)cn1)C2
[4] O=[N+]([O-])c1cn2c(n1)OC[C@H](Oc1ccc(-c3ccc(OC(F)(F)F)cc3)nc1)C2
[5] O=[N+]([O-])c1cn2c(n1)OC[C@@H](OCc1ccn(-c3ccc(OC(F)(F)F)cc3)n1)C2
Incoming: Sort these compounds on Stability so the largest reading comes first. Reply with the labels, ordered as the question asks.
Outgoing: 5, 2, 4, 3, 1
(5: 87%, 2: 58%, 4: 40%, 3: 27%, 1: 8%)

* * *

- Tested on: Liver
- measurement-notes: Metabolic stability in CD-1 mouse liver microsomes assessed as parent compound remaining at 0.5 uM after 0.5 hr
- Assay type: ADME, microsome
property-measured: Stability (%)

molecule: O=[N+]([O-])c1cn2c(n1)OC[C@H](OCc1ccc(-c3ccc(OC(F)F)cc3)cn1)C2
Stability / %: 86

[I] O=[N+]([O-])c1cn2c(n1)OC[C@@H](OCc1csc(-c3ccc(OC(F)(F)F)cc3)n1)C2
[II] O=C(Nc1ccccc1OC(F)(F)F)N[C@@H]1COc2nc([N+](=O)[O-])cn2C1
Incoming: Problem: Given the entries I and II , determine which has the lower reported Stability. State the label of the item chosen.
Outgoing: II
(II: 43%, I: 75%)
